This collection of values is drawn from patent US20240239767A1.

// PCSK9 (Homo sapiens) pKd records
A value of pKd is the negative decimal logarithm of a concentration given in moles per litre.

- Cn1c(=O)n(-c2ccc(N[C@H]3CC[C@H](Nc4nc5cccnc5o4)C3)nc2)c2ncccc21: 8.52
- COc1cccn(-c2ccc(N[C@H]3CC[C@H](Nc4nc5cccnc5o4)C3)nc2)c1=O: 8.52
- COc1cccc(F)c1-c1ccc(N[C@H]2CC[C@H](Nc3nc4cccnc4[nH]3)C2)nc1: 7.24
- COc1ccc(=O)n(-c2ccc(N[C@H]3CC[C@H](Nc4nc5cccnc5s4)C3)nc2)c1: 8.40
- CN1C(=O)CN(c2ccc(N[C@H]3CC[C@H](Nc4nc5cccnc5[nH]4)C3)nc2)C1=O: 8.52

# pKd lookup, item `Cc1cccn(-c2ccc(N[C@H]3CC[C@H](Nc4nc5cccnc5[nH]4)C3)nc2)c1=O`
9.00

Query `O=c1c2sccc2ccn1-c1ccc(N[C@H]2CC[C@H](Nc3nc4cccnc4s3)C2)nc1` next
10.00

Next: `O=c1ccccn1-c1ccc(N[C@H]2CC[C@H](Nc3nc4cc(OC(F)F)cnc4[nH]3)C2)nc1`
9.00

Also `O=c1ccccn1-c1ccc(N[C@H]2CC[C@H](Nc3nc4cccnc4s3)C2)nc1` ?
8.40

###

molecular target: PCSK9 (Homo sapiens, UniProt Q8NBP7, G670E/V474I); test: cell-based
Sequence (Q8NBP7 31-152): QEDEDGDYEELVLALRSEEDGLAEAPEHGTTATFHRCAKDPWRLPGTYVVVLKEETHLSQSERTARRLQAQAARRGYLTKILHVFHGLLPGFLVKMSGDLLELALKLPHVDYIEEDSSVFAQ
Sequence (Q8NBP7 153-692 V474I/G670E): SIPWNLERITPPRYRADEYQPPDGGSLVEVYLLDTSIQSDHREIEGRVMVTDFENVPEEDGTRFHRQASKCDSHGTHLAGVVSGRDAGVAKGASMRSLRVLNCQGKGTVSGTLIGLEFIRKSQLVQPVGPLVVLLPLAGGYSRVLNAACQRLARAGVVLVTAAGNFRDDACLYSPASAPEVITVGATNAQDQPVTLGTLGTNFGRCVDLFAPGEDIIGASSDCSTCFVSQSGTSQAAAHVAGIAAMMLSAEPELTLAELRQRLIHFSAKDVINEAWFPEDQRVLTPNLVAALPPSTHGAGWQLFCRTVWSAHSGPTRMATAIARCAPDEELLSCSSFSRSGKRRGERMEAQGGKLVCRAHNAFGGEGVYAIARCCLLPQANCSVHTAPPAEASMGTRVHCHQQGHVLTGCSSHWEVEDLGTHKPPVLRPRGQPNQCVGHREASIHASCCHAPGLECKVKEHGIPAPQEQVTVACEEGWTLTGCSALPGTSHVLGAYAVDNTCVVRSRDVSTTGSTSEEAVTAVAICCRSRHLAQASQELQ
// NB: equality with 90 nM counts as no (0); only IC50 strictly below is yes (1)

Some solved entries appear below for comparison.
- Cn1ccc(=O)n(-c2ccc(N[C@H]3CC[C@H](Nc4nc5cccnc5s4)C3)nc2)c1=O: no (0)
- O=c1ccccn1-c1ccc(N[C@H]2CC[C@H](Nc3nc4nccnc4[nH]3)C2)nc1: no (0)
- CN1C(=O)CN(c2ccc(N[C@H]3CC[C@H](Nc4nc5cccnc5[nH]4)C3)nc2)C1=O: no (0)
- COc1cnc2[nH]c(N[C@H]3CC[C@H](Nc4ccc(-n5ccccc5=O)cn4)C3)nc2c1: yes (1)
- CN1CC(=O)N(c2ccc(N[C@H]3CC[C@H](Nc4nc5cccnc5[nH]4)C3)nc2)C1=O: no (0)
- COc1cccn(-c2ccc(N[C@H]3CC[C@H](Nc4nc5cccnc5s4)C3)nc2)c1=O: no (0)
- O=c1ccccn1-c1ccc(N[C@H]2CC[C@H](Nc3nc4cc(F)cnc4[nH]3)C2)nc1: no (0)
- O=c1c(OC(F)F)cccn1-c1ccc(N[C@H]2CC[C@H](Nc3nc4cccnc4s3)C2)nc1: no (0)

Check if IC50 falls below 90 nM for `O=c1[nH]c2ccsc2c(=O)n1-c1ccc(N[C@H]2CC[C@H](Nc3nc4cccnc4s3)C2)nc1` .
yes (1)

Try the molecule `O=c1c(C(F)(F)F)cccn1-c1ccc(N[C@H]2CC[C@H](Nc3nc4cccnc4[nH]3)C2)nc1`
no (0)

Also check `Cn1cccc(-c2cnc(N[C@H]3CC[C@H](Nc4nc5cccnc5[nH]4)C3)nc2)c1=O`
no (0)

Query `O=c1c(OC(F)F)cccn1-c1ccc(N[C@H]2CC[C@H](Nc3nc4cccnc4o3)C2)nc1` next
no (0)

What do you get for `O=c1ccncn1-c1ccc(N[C@H]2CC[C@H](Nc3nc4cccnc4[nH]3)C2)nc1` ?
yes (1)

Now this one: `O=c1ccccn1-c1ccc(N[C@H]2CC[C@H](Nc3nc4cccnc4[nH]3)C2)nc1`
no (0)

Now try `O=c1c(Cl)cccn1-c1ccc(N[C@H]2CC[C@H](Nc3nc4cccnc4[nH]3)C2)nc1` .
yes (1)

Lookup `CSc1cnc2[nH]c(N[C@H]3CC[C@H](Nc4ccc(-n5ccccc5=O)cn4)C3)nc2c1`
no (0)

Next: `COc1cccn(-c2ccc(N[C@H]3CC[C@H](Nc4nc5cccnc5o4)C3)nc2)c1=O`
no (0)
